Test system: KM12 colon
TEST_METHOD_NOTES: NCI-60 one-dose screen, 48 h (100 = growth as untreated, 0 = no growth, -100 = all killed)
CONDITION_LABEL: 10 µM unless noted
Method: Growth inhibition of the KM12 human tumor cell line is measured as a screen for anti-cancer activity. Cells are grown in 96 well plates and exposed to the test compound for 48 hours. Compounds are tested at a single concentration, which is 10^-5 M for most compounds. The reported endpoint is percent growth (GI% or GIPRCNT), where numbers from 0 - 100% represent growth inhibition, and numbers from -100% - 0 represent cell death. For example, a value of 40 represents 60% growth inhibition. […]
About 83,000 compounds went through this panel and 20% of them were active in at least one assay; those are over-represented in the sample as a whole. Activity calls are given as the source filed them. Rule for the calls: active = growth percent below 10; inactive = the rest.
Known growth of a selection of molecules

{"MOLECULE": "O=C(CSc1nc2ccccc2c(=O)n1-c1ccccc1)Nc1ccc(C(=O)/C=C/c2ccc(Cl)cc2)cc1", "growth": "100% (inactive)"}
{"MOLECULE": "O=C(/C=C/c1ccc(F)cc1)c1ccc(Nc2nc(NCCO)nc(Nc3ccc(Cl)cc3)n2)cc1", "growth": "25.5% (inactive)"}
{"MOLECULE": "O=C1c2ccc3c4c(ccc(c24)C(=O)N1CCCCO)C(=O)N(CCCCO)C3=O", "growth": "95.3% (inactive)"}
{"MOLECULE": "O=Cc1cc2ccccc2nc1Nc1nccs1", "growth": "56.2% (inactive)"}
{"MOLECULE": "CCCCCCC(O)(c1ccc(F)cc1)C(CN1CCOCC1)c1ccccc1 (stereo unspecified)", "growth": "29% (inactive)"}
{"MOLECULE": "Nc1ccc(-n2c(=O)oc3ccc(Cl)cc3c2=O)c(Cl)c1", "growth": "-33.7% (active)"}
{"MOLECULE": "CN(O)c1nc(N(C)O)nc(N2CCOCC2)n1", "growth": "45.8% (inactive)"}
{"MOLECULE": "O=NN(C(=O)NC1CCC(C(=O)O)CC1)C1CCC(C(=O)O)CC1 (stereo unspecified)", "growth": "108% (inactive)"}
{"MOLECULE": "COc1ccc(C(=O)C2CC2c2ccc(Cl)cc2)cc1 (stereo unspecified)", "growth": "68.7% (inactive)"}
{"MOLECULE": "CCOc1ccc2c(c1)CN(Cc1ccc(Cl)cc1)CO2", "growth": "57.7% (inactive)"}
{"MOLECULE": "CCN1CCN(C(=S)SCC(=O)Nc2nc3ccc(C)cc3s2)CC1", "growth": "108% (inactive)"}
{"MOLECULE": "O=c1c2cc(F)ccc2sc2c(NCCN3CCCC3)nc3ccccc3c12", "growth": "39.5% (inactive)"}
{"MOLECULE": "O=C(Nc1ccc(N2CCNCC2)cc1)c1[nH]ncc1Nc1cc(C2CC2)ncn1", "growth": "21.1% (inactive)"}
{"MOLECULE": "Nc1nc(Nc2cccc(F)c2)nc2ccccc12", "growth": "59.2% (inactive)"}
{"MOLECULE": "OCCNc1nc(Nc2ccc(C3=NN(c4cc(Cl)cc(Cl)c4)C(c4ccc(C(F)(F)F)cc4)C3)cc2)nc(N2CCOCC2)n1 (stereo unspecified)", "growth": "68.6% (inactive)"}
{"MOLECULE": "O=C(Cn1cc(COc2ncnc3c2cnn3-c2ccccc2)nn1)Nc1ccccn1", "growth": "100% (inactive)"}
{"MOLECULE": "CCN(CC)CCNC(=O)C(Cl)=C1C(Cl)=C(Cl)C(Cl)=C1Cl", "growth": "23.6% (inactive)"}
{"MOLECULE": "NCCNc1nc2ccccc2c2c(=O)c3cc(F)cc(Cl)c3sc12", "growth": "-82.6% (active)"}
{"MOLECULE": "O=C(COc1cc(O)c2c(=O)cc(-c3ccccc3)oc2c1)Nc1ccccc1C(F)(F)F", "growth": "68.5% (inactive)"}
{"MOLECULE": "COc1cc2nc(-c3cccc4cccnc34)nc(NC3CCN(Cc4ccccc4)CC3)c2cc1OC", "growth": "-76% (active)"}
{"MOLECULE": "CCOC(=O)c1cnc2c(C)cccc2c1Nc1ccc(C(C)=O)cc1", "growth": "-34.7% (active)"}
{"MOLECULE": "O=C(Nc1ccc(F)cc1F)c1cc(Br)ccc1O", "growth": "-0.56% (active)"}
{"MOLECULE": "CN1C(=O)N(C)C2(c3ccccc3)OC(=S)NC12c1ccccc1 (stereo unspecified)", "growth": "91.9% (inactive)"}
{"MOLECULE": "CN(CCc1ccccc1)C(=S)N(C(=O)c1ccc([N+](=O)[O-])cc1)c1ccc(Cl)cc1", "growth": "49.6% (inactive)"}
{"MOLECULE": "O=C1/C(=C/c2ccc(O)cc2)COc2ccc(O)cc21", "growth": "64.7% (inactive)"}
{"MOLECULE": "CCCCOCc1cc(CN2CCN(C)CC2)c(O)c2ncccc12", "growth": "40.6% (inactive)"}
{"MOLECULE": "COc1ccc2[nH]c(O)c(N=NC(=O)c3oc4ccccc4c3C)c2c1", "growth": "43.8% (inactive)"}
{"MOLECULE": "CCCSC1=NC2C(N(CC)C(=O)N2CC)N1/N=C/C=C/c1ccccc1[N+](=O)[O-] (stereo unspecified)", "growth": "14.9% (inactive)"}
{"MOLECULE": "COc1ccc(/C=C2\\N=C(c3ccccc3)N(c3ccc(-c4nc5ccc(C)cc5s4)cc3)C2=O)cc1", "growth": "72.1% (inactive)"}
{"MOLECULE": "O=[N+]([O-])c1cc2c(ccc3occc32)o1", "growth": "28.6% (inactive)"}
{"MOLECULE": "COc1ccc(/C(C#N)=C/c2nc3c(N4CCOCC4)nc(Cl)nc3n2C)cc1OC", "growth": "-0.417% (active)"}
